Measured Determined concentration Mean accompanies every entry in the list below.
- ASSAY SUMMARY: Aqueous solubility assay
- Type: physicochemical
- CONDITION SET: PBS pH 7.4, 4 h, room temperature; mean of 3; maximal concentration evaluated 200, 500 or 1000 μM
Field: value (include unit after the number)

Some compounds with known Determined concentration Mean results, for comparison:
SMI: CC(C)C[C@@H]1NC(=O)C2(Cc3ccccc3C2)NC(=O)[C@@H]2CCCN2[C@H](C(=O)NC(C)(C)C)[C@H](C)NC(=O)[C@H]([C@@H](C)O)NC(=O)[C@H](CC(=O)O)NC1=O
OBSERVED MEASUREMENT: 882.5 µM
--
SMI: CC(C)C[C@@H]1NC(=O)CNC(=O)[C@H](Cc2ccc(O)cc2)NC(=O)[C@@H]2CCCN2[C@H](C(=O)NC(C)(C)C)[C@H](C)NC(=O)[C@H]([C@@H](C)O)NC(=O)[C@H](CC(=O)O)NC1=O
OBSERVED MEASUREMENT: 224.6 µM
--
SMI: CC(C)C[C@@H]1NC(=O)[C@H](Cc2cscn2)NC(=O)[C@@H]2CCCN2[C@H](C(=O)NC(C)(C)C)[C@H](C)NC(=O)[C@H]([C@@H](C)O)NC(=O)[C@H](CC(=O)O)NC1=O
OBSERVED MEASUREMENT: 183.2 µM
--
SMI: CC(C)C[C@@H]1NC(=O)C2(CCCC2)NC(=O)[C@@H]2CCCN2[C@H](C(=O)NC(C)(C)C)[C@H](C)NC(=O)[C@H]([C@@H](C)O)NC(=O)[C@H](CC(=O)O)NC1=O
OBSERVED MEASUREMENT: 926.3 µM
--
SMI: CC(C)C[C@@H]1NC(=O)[C@@H](Cc2ccc(O)cc2)NC(=O)[C@@H]2CCCN2[C@H](C(=O)NC(C)(C)C)[C@H](C)NC(=O)[C@H]([C@@H](C)O)NC(=O)[C@H](CC(=O)O)NC1=O
OBSERVED MEASUREMENT: 954.5 µM
--
SMI: CC(C)C[C@@H]1NC(=O)[C@@H]2CCCN2C(=O)[C@@H]2CCCN2[C@H](C(=O)NC(C)(C)C)[C@H](C)NC(=O)[C@H]([C@@H](C)O)NC(=O)[C@H](CC(=O)O)NC1=O
OBSERVED MEASUREMENT: 467.8 µM
--
SMI: CC(C)C[C@@H]1NC(=O)[C@H](Cc2ccc(O)cc2)NC(=O)[C@@H]2CCCN2[C@H](C(=O)NC(C)(C)C)[C@H](C)NC(=O)[C@H]([C@@H](C)O)NC(=O)[C@H](CC(=O)O)NC1=O
OBSERVED MEASUREMENT: 898.5 µM
--
SMI: CC(C)C[C@@H]1NC(=O)[C@H](CCCCN)NC(=O)[C@@H]2CCCN2[C@H](C(=O)NC(C)(C)C)[C@H](C)NC(=O)[C@H]([C@@H](C)O)NC(=O)[C@H](CC(=O)O)NC1=O
OBSERVED MEASUREMENT: 962.9 µM

Next:
Q: Determined concentration Mean lookup needed for CC(C)C[C@@H]1NC(=O)[C@H](Cc2ccc(O)cc2)NC(=O)[C@H](C)NC(=O)[C@@H]2CCCN2[C@H](C(=O)NC(C)(C)C)[C@H](C)NC(=O)[C@H]([C@@H](C)O)NC(=O)[C@H](CC(=O)O)NC1=O , thanks.
Result: 1000.0 µM
